Property: Apparant Pka; scope: individual compounds
- assay: Apparent pKa of LNP formulations (TNS fluorescence assay)
- conditions_used: LNP cationic lipid/DSPC/cholesterol/DMG-PEG 50/10/38.5/1.5 mol %, Table 3
Just the number.

CCCCCCCCCCCOC(=O)CCCCCN(CCCCCC(=O)OCC(CCCCCCCC)CCCCCCCC)CCN(CCO)C1CCC1 has a reported Apparant Pka of 6.476

// Apparant Pka value for CCCCCCCCC(CCCCCCCC)COC(=O)CCCCCN(CCCCCC(=O)OCC(CCCCCCCC)CCCCCCCC)CCN(CCC)C1CCC(O)CC1 (stereo not drawn) : 6.381

Turning now to a further record.
The reported value for CCCCCCCCC(CCCCCC)COC(=O)CCCCCN(CCCCCC(=O)OCC(CCCCCC)CCCCCCCC)CCN(CC(C)O)C1CCC1 (stereo not drawn) in terms of Apparant Pka is 5.941

---

- assay: Lipid nanoparticle size by dynamic light scattering (Malvern Zetasizer Nano ZS)
- Assay type: physicochemical
- conditions_used: LNP: cationic lipid/DSPC/cholesterol/PEG-lipid 50:10:38.5:1.5, hEPO mRNA; Table 2
Parameter: size nm. Scope: all listed entries.
Quick note: number first, unit second.

Some molecules with recorded size nm:
Measured size nm, CCCCCCCCC(CCCCCC)COC(=O)CCCCCN(CCCCCC(=O)OCC(CCCCCC)CCCCCCCC)CCN(CCO)C1CCCCCC1 (stereo not drawn) [Compound 3] : 58.7 nm

Reported size nm of CCCCCCCCC(CCCCCC)COC(=O)CCCCCN(CCCCCC(=O)OCC(CCCCCC)CCCCCCCC)CCN(C)CCO (stereo not drawn) [Compound B] : 79.0 nm

Let's switch to this molecule now.
size nm reported for this molecule CCCCCCCCC(CCCCCC)COC(=O)CCCCCN(CCCCCC(=O)OCC(CCCCCC)CCCCCCCC)CCN(CCO)CCCC (stereo not drawn) [Compound C] : 65.0 nm

---

Each entry below carries its reported size nm.
- assay: Lipid nanoparticle size by dynamic light scattering (Malvern Zetasizer Nano ZS)
- Format: physicochemical
- conditions_used: LNP: cationic lipid/DSPC/cholesterol/PEG-lipid 50:10:38.5:1.5, hEPO mRNA; Table 3
The reply should contain only the number, in nm.

Known results for compounds:
Query CCCCCCCCC(CCCCCC)COC(=O)CCCCCN(CCCCCC(=O)OCC(CCCCCC)CCCCCCCC)CCN(CCO)C1CCC1 (stereo not shown) yields size nm of 60.58

The compound listed as CCCCCCCCC(CCCCCCCC)COC(=O)CCOCCN(CCOCCC(=O)OCC(CCCCCCCC)CCCCCCCC)CCN(CCO)C1CCCCC1 has a reported size nm of 70.93

Entry under test: CCCCCCCCC(CCCCCCCC)CC(=O)NCCCCCN(CCCCCOC(=O)CC(CCCCCCCC)CCCCCCCC)CCN(CCO)C1CCCCCC1 . Its size nm was 61.5

Reported size nm ( CCCCC/C=C\CCCOC(=O)CCCCCN(CCCCCC(=O)OCCC/C=C\CCCCC)CCN(CCO)C1CCC1 ) = 244.8

Briefly, size nm measured for CCCCCCCCC(CCCCCC)CC(=O)NCCCCCN(CCCCCNC(=O)CC(CCCCCC)CCCCCCCC)CCN(CCO)C1CCCCCC1 (stereo not shown) : 79.28

size nm reported for this compound CCCCCCCCC(CCCCCC)COC(=O)CCCCCC(CCCCCC(=O)OCC(CCCCCC)CCCCCCCC)CN(CC)CCO (stereo not shown) : 54.69

Others:
Entry CCCCCCC(CCCCCC)COC(=O)CCCCCN(CCCCCC(=O)OCC(CCCCCC)CCCCCC)CCN(CCC)C1CCC(O)CC1 (stereo not shown) ; size nm = 113.9
